- Assay: soluble on expression in E. coli; label from the status in PepcDB or PDB records
Reported Property: soluble on expression in E. coli

Polymer Sequence	Reported Property	Val
MHNQAPIQRRKSTRIYVGNVPIGDGAPIAVQSMTNTRTTDVEATVNQIKALERVGADIVRVSVPTMDAAEAFKLIKQRVNVPLVADIHFDYRIALKVAEYGVDCLRINPGNIGNEERIRMVVDCARDKNIPIRIGVNAGSLEKDLQEKYGEPTPQALLESAMRHVDHLDRLNFDQFKVSVKASDVFLAVESYRLLAKQIDQPLHLGITEAGGARSGAVKSAIGLGLLLSEGIGDTLRVSLAADPVEEIKVGFDILKSLRIRSRGINFIACPTCSRQEFDVIGTVNALEQRLEDIITPMDVSIIGCVVNGPGEALVSTLGVTGGNKKSGLYEDGVRKDRLDNNDMIDQLEARIRAKASQLDEARRIDVQQVGKIITLEHHHHHH	soluble on expression in E. coli	not soluble
MALVRFSPLYEFDRELGTLQRQMSRFLQPWPWTEAELKELSFAPAVEVKETDAAIELRVELPGIDPKDLDLQVTAEAVVLKGERRSEDRSEAEGVLRTEFRYGAFERVIPLPAQVKNTEAQADYQNGILVLTLPKRDEELHKVVKVDLGHLAAAPVAAEACERLEHHHHHH	soluble on expression in E. coli	soluble
MENMIVIMAGGRSSRMGAEKPILKVNGKPMILRVYEESTKVGETLVAISKNTPKTRELCIKEGIPLIETPGEGYVEDVRYLLKELGSFVSVSADLPFVKACDIAEVKKAFDGKTSLTGVLPLSKVPTDLRPVVYKGYVIVGLNGVGFEGEKFYELSNPLLALNVNTPEELKLANRIAKLIG	soluble on expression in E. coli	soluble
MAHHHHHHMTKSYLNQDQQLRAQQVYTTHKHLKELSMATKEALTYHDKYLAAMEHVMSCLLNNSDALEDARKHLTQEAAVDIQPTFPTAGRLAAAYSNWRVSAELHMMRTELEFLKEVSTTGHEAVKKTKNAVHGLEKVAKKCAHVNSPEFEAKISSKSGKALEKLLHEQRETNTMMMSIENAIKKDMMSLATSWSAKLVTRGDALYTAFRSLGCRTVACFPTTDPTLSQGMPPPAAGYVLSQPSSASTSVPYSGGTAVGHGTPSTLPAAQSVECAAVPLSSAGEGAAAGVKLEFNLNEGKPVSR	soluble on expression in E. coli	soluble
MGSDKIHHHHHHMKNFVTSERSIFEMEKSTEPAIRVKDGSVVKIKTKDHFNGQIHAKQLHYGELDWKQFSPTTGPIYIEEARPGDLLAITIEKIELLGTEVFLLNGPNIGITDDLLTSNSTRCYKVENNQIIYSEDIHIPIRKTIGLLKTEELNPSKVPTKNGGLLDSSKITEGATIFLPVEKYGASLHVGNVRATTGFGKITATSAEAPAEVTLRLQILKNRTAPTPTIIHYHNLICLASDITIEKATQKTMHNMITLLTESDKMTTEDALFLISLQADFQVCKLCKPNITTSIKLPLDYFPEMPFL	soluble on expression in E. coli	not soluble
MVRLEDYGTWDEALKRLEASRKALLALLREADPAWLSAPLREGAWTPLMVAEHVALVEDSTARVLRRLRRLAAGENLPPVPVKPGEFKDGKPQAPEGVRPKGGLSLEEVLALLDRARAFLLEEVAKADPQNPATFPHPFFGELNPLGWLRAAAYHEAHHLKALQASLPR	soluble on expression in E. coli	soluble
MDTGNNNNLPTLLKCNFPPYGKDYPGGFATGRFSDGRVPSDLIAEKLGLAKTLPAYMNPYLKPEDLLKGVTFASGGTGYDPLTAKIMSVISVWDQLINFKEYISKIKRHFGEEKAKDILEHSFFLVVSSSNDLAHTYLAQTHRYDRTSYANFLADSAVHFVRELHKLGARKIGVFSAVPVGCVPLQRTVFGDKELDGVILYINVYDTLFDMIQHPKKYGFEVADRGCCGKGLLAISYLCNSLNPFTCSNSSAYIFWDSYHPSERAYQVIVDNLLDKYLSKVY	soluble on expression in E. coli	soluble
MGHHHHHHSHMRLSQKWQVINQRSLLCGEDEAADENPESQEMLEEQLVRMLTREVMDLITVCCVSKKGADHSSAPPADGDDEEMMATEVTPSAMAELTDLGKCLMKHEDVCTALLITAFNSLAWKDTLSCQRTTSQLCWPLLKQVLSGTLLADAVTWLFTSVLKGLQMHGQHDGCMASLVHLAFQIYEALRPRYLEIRAVMEQIPEIQKDSLDQFDCKLLNPSLQKVADKRRKDQFERLIAGCIGKPLGEQFRKEVHIKNLPSLFKKTKPMLETEVLDNDGGGLATIFEP	soluble on expression in E. coli	not soluble
MSLQTSDQYSIQEVVDAGHGFFGETTGGLAKVVERAFQQYGLPNGYILGQEGSGAFVAGLTYGEGTLYTKNAGQHPVFWQGPSLGLDYGGQGTRAMMLVYNLPSVDALYRRYGGVSGSAFIVAGVGMTYLKSSDVTLAPIRTGIGARLGINVGYLKLTQQPTWNPFEGHHHHHH	soluble on expression in E. coli	soluble
MQPGGDMSALLAQAQQMQQKLLEAQQQLANSEVHGQAGGGLVKVVVKGSGEVIGVTIDPKVVDPDDIETLQDLIVGAMRDASQQVTKMAQERLGALAGAMRPPAPPAAPPGAPGMPGMPGMPGAPGAPPVPGI	soluble on expression in E. coli	not soluble
MSFRPEYKEYFKQGATARIYNGAFEDAGFYDEVDIKEFEYSREEKTFYYPCPCGDRFEISLEDLRNGEVVARCPSCSLIVCTVYEAEDLEKYL	soluble on expression in E. coli	not soluble
MKFAVIGNPISHSLSPLMHHANFQSLNLENTYEAINVPVNQFQDIKKIISEKSIDGFNVTIPHKERIIPYLDDINEQAKSVGAVNTVLVKDGKWIGYNTDGIGYVNGLKQIYEGIEDAYILILGAGGASKGIANELYKIVRPTLTVANRTMSRFNNWSLNINKINLSHAESHLDEFDIIINTTPAGMNGNTDSVISLNRLASHTLVSDIVYNPYKTPILIEAEQRGNPIYNGLDMFVHQGAESFKIWTNLEPDIKAMKNIVIQKLKGELLEHHHHHH	soluble on expression in E. coli	soluble
MKYCDFNGCHNKISKGRYCEEHKRNKPRKKKDKKNIYHHENKPFYRTDAWKFVRSKVYERENGCCQRCGRFVFGRRAHVHHVIPIKEDPILKLEENNLRLLCPVCHTIEENEDKPKKVFPSYFGSPPIKNLEHHHHHH	soluble on expression in E. coli	soluble
